measurement target: T1, hIL2-DM-his (human, UniProt P60568 21-153)
T1 construct: expressed in ExpiCHO-S cells, nickel-column purified; also called hIL-2 mutein containing two point mutations K64G and N90R (with a his-tag); not shown: his-tag
T1 sequence (P60568 21-153 K84G/N110R): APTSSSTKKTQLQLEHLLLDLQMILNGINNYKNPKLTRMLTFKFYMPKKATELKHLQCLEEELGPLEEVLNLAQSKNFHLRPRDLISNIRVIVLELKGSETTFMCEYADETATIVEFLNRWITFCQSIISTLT
test: BLI ForteBio, Ab on Protein A sensor
measured property: pKd
For clarity, pKd is expressed as the negative log10 of concentration in mol/L.

Reported pKd, binder K4G4 (antibody, V domains shown) VH: QVQLVQSGAEVKKPGATVKISCKVSGDTITAYYMHWVRQAPGQGLEWIGRIDPEDDSTKYAENFKGRVTITADTSTDTAYMELSSLRSEDTAVYYCTTVTFLYSRELRWFAYWGQGTLVTVSS VL: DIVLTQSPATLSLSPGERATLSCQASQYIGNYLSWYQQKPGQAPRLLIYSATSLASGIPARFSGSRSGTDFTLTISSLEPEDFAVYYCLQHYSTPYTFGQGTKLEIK : ____ 8.65

Next entry: K4G5 (antibody, V domains shown) VH: QVQLVQSGAEVKKPGATVKISCKVSGDTITAYYMHWVRQAPGQGLEWIGRIDPEDDSTKYAENFKGRVTITADTSTDTAYMELSSLRSEDTAVYYCTTVTFYYTRELRWFAYWGQGTLVTVSS VL: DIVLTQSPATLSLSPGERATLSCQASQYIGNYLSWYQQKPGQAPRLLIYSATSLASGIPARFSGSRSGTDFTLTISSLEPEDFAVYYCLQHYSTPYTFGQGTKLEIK 8.57

Next entry: K3G10 (antibody, V domains shown) VH: QVQLVQSGAEVKKPGATVKISCKVSGDTITAYYMHWVRQAPGQGLEWIGRIDPDDDSTKYAENFKGRVTITADTSTDTAYMELSSLRSEDTAVYYCTTITFYYTRELRWFAYWGQGTLVTVSS VL: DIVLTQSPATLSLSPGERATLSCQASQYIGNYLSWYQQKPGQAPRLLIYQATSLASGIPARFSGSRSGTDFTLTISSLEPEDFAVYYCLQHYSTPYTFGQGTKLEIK 8.84

Next entry: K4G8 (antibody, V domains shown) VH: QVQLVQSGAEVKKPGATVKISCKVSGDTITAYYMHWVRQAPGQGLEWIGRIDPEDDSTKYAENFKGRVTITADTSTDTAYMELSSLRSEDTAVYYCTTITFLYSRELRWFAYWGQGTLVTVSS VL: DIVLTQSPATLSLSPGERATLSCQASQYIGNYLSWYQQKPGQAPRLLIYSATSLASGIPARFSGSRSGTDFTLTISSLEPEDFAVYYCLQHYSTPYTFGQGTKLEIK 8.60
